Data credit: paper PMC10397247

# System name: T1, 4H687-bN
# T1 chain: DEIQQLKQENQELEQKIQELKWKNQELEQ
# Assay info: two-hybrid library CCNG1;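 also: natural log of median RNA to DNA barcode read ratio; higher means stronger binding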
Reported property: interaction score

- Binder: "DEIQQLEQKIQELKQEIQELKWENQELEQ [4H331-bN]"
  Reported property: "interaction score"
  Value observed: -0.624

P: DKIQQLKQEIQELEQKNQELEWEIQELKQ [4H2610-bN]
Q: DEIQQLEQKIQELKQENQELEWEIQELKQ [4H338-bN]
Lab note: check whether P or Q has the lower measured interaction score. Answer = label.
P
